All values here come from PubChem BioAssay (NCI).

Tested on: A498 renal
Assay: NCI-60 one-dose screen, 48 h
Details: 10 µM unless noted
About 83,000 compounds went through this panel and 20% of them were active in at least one assay; those are over-represented in the sample as a whole. Active and inactive are the calls of the source. The calls were made as follows: active = growth percent below 10; inactive = the rest.
Returns: one label drawn from Yes (active), No (inactive)

Completed entries (count: 6):
COc1cc(/C=N/Nc2ncc(-c3cc4cc5c(cc4o3)OCO5)s2)cc(OC)c1OC; No
O=C(Nc1ccc(Nc2ccncc2)cc1)c1ccc(C(=O)Nc2ccc(Nc3ccncc3)cc2)cc1; No
C[C@@]1(CCC#N)[C@H]2CC[C@@H]3[C@H]4[C@H](C(=O)/C=C/c5cccnc5)CC[C@]4(C#N)CC[C@@]3(C)[C@]2(C)CC[C@H]1C(=O)/C=C/c1cccnc1; No
O=C(CC(SCc1ccccc1)c1ccccc1)c1ccccc1 (centres undefined); No
Cc1ccc(S(=O)(=O)N/N=C\c2cc(Cl)ccc2O)cc1; No
CN(c1ccccc1)c1ccc2c(c1)OCCC21CC1Nc1cnccc1C(=O)O (centres undefined); No

[ask] How was "COc1ccc(C(=NN=C(N)N)c2ccc(OC)cc2)cc1" classified in this test?
[reply] No

[ask] How was "Clc1ccc(-c2c3ccc(=[N+]4CCCCC4)cc-3oc3cc(N4CCCCC4)ccc23)cc1" classified in this test?
[reply] Yes

[ask] How was "COc1ccc(NC(=O)CSc2nc(C)c(C(C)=O)n2-c2ccc([N+](=O)[O-])cc2)cc1" classified in this test?
[reply] No
